Each entry below lists one item and its recorded % of binding to human Ang-2 value.
Target: T1, human Ang-2443 (human, UniProt O15123 19-496)
T1 construct: Splice variant missing amino acids 96-148; supernatant of transfected 293F cells
T1 sequence: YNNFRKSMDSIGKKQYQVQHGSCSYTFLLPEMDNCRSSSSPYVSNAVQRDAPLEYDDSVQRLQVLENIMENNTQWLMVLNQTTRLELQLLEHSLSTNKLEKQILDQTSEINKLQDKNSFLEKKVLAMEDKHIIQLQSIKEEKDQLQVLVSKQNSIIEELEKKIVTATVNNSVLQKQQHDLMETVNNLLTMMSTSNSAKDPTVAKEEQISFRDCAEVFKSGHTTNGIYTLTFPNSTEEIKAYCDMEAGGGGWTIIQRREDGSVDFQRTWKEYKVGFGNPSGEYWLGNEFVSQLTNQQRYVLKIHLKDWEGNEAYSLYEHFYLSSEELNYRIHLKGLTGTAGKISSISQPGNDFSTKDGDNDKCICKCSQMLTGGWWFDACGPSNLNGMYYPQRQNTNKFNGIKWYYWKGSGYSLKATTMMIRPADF
Test: ELISA
Please reply with the bare figure in % and do not write the unit itself.

binder	% of binding to human Ang-2, %
mAb 3.31.2 (antibody, V domains shown, Human hybridoma IgG (XenoMouse); also called x3.31) VH: EVQLVESGGGLVQPGGSLRLSCAASGFTFSSYWMSWVRQAPGKGLEWVANIKQDGSDKYYVDSVKGRFTISRDNAKNSLYLRMNSLRAEDTAVFYCARDMGSGWFDYWGQGTLVTVSS VL: EVVMTQSPATLSVSPGERATLSCRASQSVGSNLAWYQQKPGQAPRLLIYGASTRATGIPARFSGSGSGTEFTLTISSLQSEDFAVYCCQQYNHWWTFGQGTKVEIKR	100
mAb 5.62.1 (antibody, V domains shown, Human hybridoma IgG (XenoMouse); also called x5.62) VH: EVQLVESGGGLVQPGGSLRLSCAASGFTFSSYWMSWVRQAPGKGLEWVANIKQDGSEKYYVDSVKGRFTISRDNAKNSLYLQMNSLRAEDTAVYYCARDPGIAVAGPFDYWGQGTLVTVSS VL: EIVMTQSPATLSVSPGERATLSCRASQSVSSNLAWYQQKPGQAPRLLIYGAFTRATGIPARFSGSGSGTEFTLTISSLQSEDFAVYYCQQYNHWWTFGQGTKVGIKR	100

INPUT: Consider the binder shown here: mAb 5.108.1 (antibody, V domains shown, Human hybridoma IgG (XenoMouse); also called x5.108) VH: QVQLVESGGGVVQPGRSLRLSCAASGFTFSSYGMHWVRQAPGKGLEWVAVIWYDGSNKYYADSVKGRFTISRDNSKNTLYLQMNSLRAEDTAMYYCARELALWGQGTLVTVSS VL: EIVMTQSPATLSVSPGERATLSCRASQSVSSYLAWYQQKPGQAPRLLIYGAFTRATGIPARFRGSGSGPEFTLTISSLQSEDFAVYYCQQYSHWWTFGQGTKVEIKR What is its recorded % of binding to human Ang-2?
OUTPUT: 100

# credit: patent US20080267971A1
